Biological target: T1, human CTLA-4 (human, UniProt P16410 36-223)
T1 construct: also called huCTLA4
T1 sequence (P16410 36-223): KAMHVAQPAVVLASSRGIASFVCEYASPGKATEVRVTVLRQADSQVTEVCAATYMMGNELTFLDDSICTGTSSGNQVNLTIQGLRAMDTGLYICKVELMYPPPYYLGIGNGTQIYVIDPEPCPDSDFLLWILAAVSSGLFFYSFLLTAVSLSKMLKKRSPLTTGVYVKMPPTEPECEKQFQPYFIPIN
Experiment: flow cytometry, CHO cells stably expressing CTLA4
measurement.kind: MFI at 33.3 nM
Entry format: amount then unit.

binder | measurement.kind | reading
CD80 IgV-Fc T13R/Q33L/E35D/M47L/V68M/L85M (Fc fusion, not shown: a dimerising Fc or GST) VIHVTKEVKEVARLSCGHNVSVEELAQTRIYWLKDKKMVLTMMSGDLNIWPEYKNRTIFDITNNLSIMILALRPSDEGTYECVVMKYEKDAFKREHLAEVTLSVKAD | MFI at 33.3 nM | 141 MFI

CD80 IgV-Fc T13R/Q33R/E35D/M47L/V68M (Fc fusion, not shown: a dimerising Fc or GST) VIHVTKEVKEVARLSCGHNVSVEELAQTRIYWRKDKKMVLTMMSGDLNIWPEYKNRTIFDITNNLSIMILALRPSDEGTYECVVLKYEKDAFKREHLAEVTLSVKAD yielded MFI at 33.3 nM of 20700 MFI
